assay: CC50 assay (CellTiter-Glo) in Huh-7 HCV replicon cells; format: cell-based; conditions: human, Table 2, 3 days incubation

[
  {
    "molecule": "COc1ccc(-c2ccc3nc(NCc4cccc(F)c4)nc(NC4(C(F)(F)F)CC4)c3n2)cc1S(C)(=O)=O",
    "CC50 at 3 days": "> 10 µM"
  },
  {
    "molecule": "COc1ccc(-c2ccc3nc(NCc4ccc(F)c(F)c4)nc(NCC(F)(F)F)c3n2)cc1S(N)(=O)=O",
    "CC50 at 3 days": "> 10 µM"
  },
  {
    "molecule": "CS(=O)(=O)c1cccc(-c2ccc3nc(NCc4ccc(-n5cccn5)cc4)nc(NCC(F)(F)F)c3n2)c1",
    "CC50 at 3 days": "> 10 µM"
  },
  {
    "molecule": "COc1ccc(-c2ccc3nc(NC(C)C#CC4CC4)nc(NCC(F)(F)F)c3n2)cc1S(N)(=O)=O (stereo not shown)",
    "CC50 at 3 days": "1 to 10 µM"
  }
]

====

# Lookup of reported CC50 at 3 days keyed by entry
Assay: CC50 assay (CellTiter-Glo) in Huh-7 HCV replicon cells
Format: cell-based
Conditions: human, Table 2, 3 days incubation
Description: The anti-HCV activity of the pyrido[3,2-d]pyrimidine derivatives of this invention was tested in a human hepatoma Huh-7 cell line harboring a HCV replicon. The assay comprised the following steps: • Step 1: compound preparation and serial dilution: serial dilution is performed in 50% DMSO in a 384-well plate. […]

[
  {
    "compound": "C[C@@H](Nc1nc(NC2(C(F)(F)F)CC2)c2nc(-c3ccc(F)cc3)ccc2n1)c1ccc(S(N)(=O)=O)c(C(F)(F)F)c1",
    "CC50 at 3 days": "> 10 µM"
  },
  {
    "compound": "CS(=O)(=O)c1cccc(-c2ccc3nc(NCc4ccc(-n5cncn5)cc4)nc(O[C@@H]4C[C@@H]5C[C@@H]5C4)c3n2)c1",
    "CC50 at 3 days": "1 to 10 µM"
  },
  {
    "compound": "C[C@@H](Nc1nc(NCC(F)(F)F)c2nc(-c3ccc(Cl)c(S(C)(=O)=O)c3)ccc2n1)c1ccc(S(N)(=O)=O)cc1",
    "CC50 at 3 days": "1 to 10 µM"
  },
  {
    "compound": "CC(Cn1cncn1)Nc1nc(NC2(C(F)(F)F)CC2)c2nc(-c3ccc(N)nc3)ccc2n1 (stereo not shown)",
    "CC50 at 3 days": "> 10 µM"
  }
]

====

Assay: CC50 assay (CellTiter-Glo) in Huh-7 HCV replicon cells
Assay type: cell-based
Conditions: human, Table 2, 3 days incubation
Experimental: The anti-HCV activity of the pyrido[3,2-d]pyrimidine derivatives of this invention was tested in a human hepatoma Huh-7 cell line harboring a HCV replicon. The assay comprised the following steps: • Step 1: compound preparation and serial dilution: serial dilution is performed in 50% DMSO in a 384-well plate. […]
Each record here notes measured CC50 at 3 days.
value type: CC50 at 3 days

[
  {
    "structure as smiles": "Nc1ccc(-c2ccc3nc(NCc4ccc(-n5cncn5)cc4)nc(NC4(C(F)(F)F)CC4)c3n2)cn1",
    "result": "1 to 10 µM"
  },
  {
    "structure as smiles": "NS(=O)(=O)c1cc(Cl)cc(CNc2nc(NC3(C(F)(F)F)CC3)c3nc(C#CC4CC4)ccc3n2)c1",
    "result": "> 10 µM"
  },
  {
    "structure as smiles": "CCOc1ccc(-c2ccc3nc(NCc4ccc(-n5ccnc5)cc4)nc(NCC(F)(F)F)c3n2)cc1S(N)(=O)=O",
    "result": "1 to 10 µM"
  },
  {
    "structure as smiles": "COCc1ccc(-c2ccc3nc(NCc4ccc(S(N)(=O)=O)cc4)nc(NC4(C(F)(F)F)CC4)c3n2)cc1S(C)(=O)=O",
    "result": "> 10 µM"
  },
  {
    "structure as smiles": "CS(=O)(=O)c1cc(-c2ccc3nc(NCc4cc(F)cc(S(N)(=O)=O)c4)nc(NC4(C(F)(F)F)CC4)c3n2)ccc1Cl",
    "result": "1 to 10 µM"
  },
  {
    "structure as smiles": "COc1ccc(-c2ccc3nc(NCc4ccc(S(N)(=O)=O)cc4)nc(NCC(F)(F)F)c3n2)cc1S(=O)(=O)C1CC1",
    "result": "> 10 µM"
  },
  {
    "structure as smiles": "NS(=O)(=O)c1ccc(CNc2nc(NC3(C(F)(F)F)CC3)c3nc(-c4ccc(F)cc4)ccc3n2)cc1",
    "result": "1 to 10 µM"
  }
]

The origin of these recorded values is patent US8536187B2.
